# target.desc: MDM2 protein (Homo sapiens)
assay.metric: pKd
pKd (log units): -log10 of the concentration in mol/L.

Kindly state the measured pKd obtained for COc1ccc2[nH]c3c(-c4cccc5ccccc45)nccc3c2c1 with MDM2 protein (Homo sapiens).
7.37

----------
# target.desc: MDM2 protein (Homo sapiens, UniProt Q00987)
# Sequence (Q00987 whole entry): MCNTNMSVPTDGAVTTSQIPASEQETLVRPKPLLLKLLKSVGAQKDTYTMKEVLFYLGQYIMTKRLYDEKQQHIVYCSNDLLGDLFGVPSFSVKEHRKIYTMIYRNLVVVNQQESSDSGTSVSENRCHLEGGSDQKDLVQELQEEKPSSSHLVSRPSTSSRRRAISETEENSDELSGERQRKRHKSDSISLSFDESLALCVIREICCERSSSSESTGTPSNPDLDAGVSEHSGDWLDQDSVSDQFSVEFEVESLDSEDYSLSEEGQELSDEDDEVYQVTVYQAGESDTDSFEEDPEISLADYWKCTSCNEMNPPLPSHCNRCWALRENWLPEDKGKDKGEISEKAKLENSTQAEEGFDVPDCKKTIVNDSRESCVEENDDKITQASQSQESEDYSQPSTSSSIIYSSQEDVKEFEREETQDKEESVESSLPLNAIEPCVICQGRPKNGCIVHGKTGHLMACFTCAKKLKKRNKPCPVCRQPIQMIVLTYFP
assay.metric: Ki (nM)
Output spec: scalar in nM, unitless text.

API: value(readout=Ki, system=MDM2 protein (Homo sapiens, UniProt Q00987)) for record COc1ccc2[nH]c3c(-c4cccc5ccccc45)nccc3c2c1
28
